Hello, the source for this data is patent US20050048071A1, in case you need it.

// reported binding score (HLA-A2.1 fluorescence on T2 cells) for each item listed
Biological target: HLA-A2.1 MHC class I molecules on T2 cells (human)
Experiment: T2 cells pulsed with peptide, anti-HLA-A2.1 flow cytometry; Brefeldin A treatment: Overnight
Respond using a number only.

Ask: # input binder: SLNFIRAHT (Synthetic nonamer) [CD20 peptide SLNFIRAHT (SEQ ID NO: 9)] ; wanted: its binding score (HLA-A2.1 fluorescence on T2 cells)
Result: 195

Ask: # input binder: LLFFLLFLV [CD19 peptide LLFFLLFLV (SEQ ID NO: 5)] ; wanted: its binding score (HLA-A2.1 fluorescence on T2 cells)
Result: 200

Ask: # input binder: RLLFFLLFL (Synthetic nonamer) [CD19 peptide RLLFFLLFL (SEQ ID NO: 1)] ; wanted: its binding score (HLA-A2.1 fluorescence on T2 cells)
Result: 248

Ask: # input binder: SHFLKMESL (Synthetic nonamer) [CD20 peptide SHFLKMESL (SEQ ID NO: 11)] ; wanted: its binding score (HLA-A2.1 fluorescence on T2 cells)
Result: 277

Ask: # input binder: AISGMILSI (Synthetic nonamer) [CD20 peptide AISGMILSI (SEQ ID NO: 7)] ; wanted: its binding score (HLA-A2.1 fluorescence on T2 cells)
Result: 232

Ask: # input binder: LKMESLNFI (Synthetic nonamer) [CD20 peptide LKMESLNFI (SEQ ID NO: 10)] ; wanted: its binding score (HLA-A2.1 fluorescence on T2 cells)
Result: 225

Ask: # input binder: SLFLGILSV (Synthetic nonamer) [CD20 peptide SLFLGILSV (SEQ ID NO: 6)] ; wanted: its binding score (HLA-A2.1 fluorescence on T2 cells)
Result: 410

Ask: # input binder: TLAYLIFCL (Synthetic nonamer) [CD19 peptide TLAYLIFCL (SEQ ID NO: 2)] ; wanted: its binding score (HLA-A2.1 fluorescence on T2 cells)
Result: 312
